- ASSAYED SYSTEM: human IL-12 receptor (IL-12Rβ1 and IL-12Rβ2) on HEK-Blue IL-12 cells (human, UniProt P42701 24-662; Q99665 24-862)
- Sequence (Q99665 24-862, chain 2 of 2, other chains not shown): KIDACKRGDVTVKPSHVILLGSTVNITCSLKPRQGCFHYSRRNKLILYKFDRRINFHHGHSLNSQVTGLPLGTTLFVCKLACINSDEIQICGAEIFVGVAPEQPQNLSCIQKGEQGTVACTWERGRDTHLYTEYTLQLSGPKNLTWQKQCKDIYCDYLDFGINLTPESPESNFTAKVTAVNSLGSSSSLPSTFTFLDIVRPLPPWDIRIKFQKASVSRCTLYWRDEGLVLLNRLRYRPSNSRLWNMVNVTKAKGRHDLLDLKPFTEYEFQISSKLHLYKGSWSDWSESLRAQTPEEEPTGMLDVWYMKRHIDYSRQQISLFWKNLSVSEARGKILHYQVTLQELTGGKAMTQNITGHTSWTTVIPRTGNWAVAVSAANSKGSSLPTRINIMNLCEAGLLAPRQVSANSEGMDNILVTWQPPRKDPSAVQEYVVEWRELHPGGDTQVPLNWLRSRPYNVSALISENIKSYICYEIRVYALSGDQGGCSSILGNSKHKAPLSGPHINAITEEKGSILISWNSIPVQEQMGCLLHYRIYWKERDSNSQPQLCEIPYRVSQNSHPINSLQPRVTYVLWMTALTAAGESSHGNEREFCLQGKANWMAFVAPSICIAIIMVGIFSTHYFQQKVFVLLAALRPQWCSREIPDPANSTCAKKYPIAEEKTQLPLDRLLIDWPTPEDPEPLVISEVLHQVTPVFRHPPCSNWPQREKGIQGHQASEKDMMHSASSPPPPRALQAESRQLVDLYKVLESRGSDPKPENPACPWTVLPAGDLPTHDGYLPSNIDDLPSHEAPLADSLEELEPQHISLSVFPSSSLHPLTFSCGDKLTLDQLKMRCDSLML
- TEST PROTOCOL: cell-based or functional assay
MEASUREMENT TYPE: EC50

Ask: Identify EC50 associated with the binder DGL484 (bispecific antibody, V domains shown) V domain 1: QVQLVESGGGLVQAGGSLRLSCAASARIFNSYAVAWFRQTPGKEREFVASISWSGGSTNYADSVKGRFTISRDNAKNTVFLQMNSLKPADTAVYYCAADRNYYPSVLGKYTYWGQGTQVTVEP V domain 2: QVQLVESGGGLVQPGGSLRLSCAASGFTFEPYDMSWFRQAPGKGPEWVSAIDKGGGAGATYYADSVKGRFTISRDNAKKTLYLQMKSLKPEDTAVYYCAITAGPYSDSTPRVAYRGEGTQVTVEP
Reply: 9.7e-09 M (implied)

Ask: Determine from records and report EC50 for DGL570 (bispecific antibody, V domains shown, 233B1 x 64B2) V domain 1: QVQLVESGGGLVQAGGSLRLSCAASRSISSFNEMAWYRQAPGEQRELVATIVSTVGFTNYADSVKGRFTISRDNAKNTVYLQMNSLKAEDTAVYYCNARRISTDYWGQGTQVTVEP V domain 2: QVQLVESGGGLVQPGGSLRLSCAASGFTFSSKAMHWFRQAPGKGLEWVSSINSGGAITYYKDSVKGRFTVSRDNAKNILYLEMNSLKPEDTALYYCATDTDGRTRGQGTQVTVEP
Reply: > 100 nM

Ask: For DGL482 (bispecific antibody, V domains shown, 67B1 x 64B2) V domain 1: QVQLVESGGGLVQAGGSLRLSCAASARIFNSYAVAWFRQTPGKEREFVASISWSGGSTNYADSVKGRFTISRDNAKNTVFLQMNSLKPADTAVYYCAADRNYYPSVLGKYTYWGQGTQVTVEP V domain 2: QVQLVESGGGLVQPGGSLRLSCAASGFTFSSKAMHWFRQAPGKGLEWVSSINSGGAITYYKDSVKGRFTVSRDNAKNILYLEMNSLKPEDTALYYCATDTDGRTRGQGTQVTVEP , write its EC50.
Reply: 2.9e-09 M (implied)
